# Tested on: RARa:RXR (NR concentration 270 nM, RXRa partner concentration 90 nM)
# protocol notes: PBM binding z-score (relative to random genomic background probes); higher = stronger binding; sequences stand for … in GC…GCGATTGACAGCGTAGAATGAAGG
Listed next: entries and their corresponding PBM binding z-score.
Answer with a number only.

[
  {
    "chain sequence": "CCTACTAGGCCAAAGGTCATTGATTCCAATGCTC",
    "PBM binding z-score": 6.39
  },
  {
    "chain sequence": "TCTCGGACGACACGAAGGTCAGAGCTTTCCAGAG",
    "PBM binding z-score": 1.95
  },
  {
    "chain sequence": "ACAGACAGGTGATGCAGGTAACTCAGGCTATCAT",
    "PBM binding z-score": -0.107
  },
  {
    "chain sequence": "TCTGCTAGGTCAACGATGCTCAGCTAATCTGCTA",
    "PBM binding z-score": 1.69
  },
  {
    "chain sequence": "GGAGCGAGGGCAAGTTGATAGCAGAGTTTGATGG",
    "PBM binding z-score": 0.395
  }
]

Kindly review the next sequence as well.
Identify measured PBM binding z-score associated with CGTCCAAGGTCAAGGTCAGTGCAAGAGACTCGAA
5.21

----------
# System: PPARg:RXRa (NR concentration 180 nM, RXRa partner concentration 90 nM)
# protocol notes: PBM binding z-score (relative to random genomic background probes); higher = stronger binding; sequences stand for … in GC…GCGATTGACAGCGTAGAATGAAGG
Tag: Satisfied if measured PBM binding z-score is not below 2, Not satisfied if it is.

[
  {
    "chain sequence": "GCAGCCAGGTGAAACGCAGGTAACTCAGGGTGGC",
    "discrete label": "Not satisfied"
  }
]

Determine whether measured PBM binding z-score meets or exceeds 2 for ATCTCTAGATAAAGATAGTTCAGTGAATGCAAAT
Not satisfied

Determine whether measured PBM binding z-score meets or exceeds 2 for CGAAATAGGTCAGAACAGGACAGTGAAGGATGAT
Satisfied

Determine whether measured PBM binding z-score meets or exceeds 2 for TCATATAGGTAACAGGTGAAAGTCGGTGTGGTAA
Satisfied

Determine whether measured PBM binding z-score meets or exceeds 2 for CCTAGCAGGCGAATCTGGGTCACTCAAGGCTTGA
Satisfied

Determine whether measured PBM binding z-score meets or exceeds 2 for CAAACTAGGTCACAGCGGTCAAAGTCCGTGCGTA
Satisfied

Determine whether measured PBM binding z-score meets or exceeds 2 for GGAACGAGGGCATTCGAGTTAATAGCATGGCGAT
Not satisfied

Determine whether measured PBM binding z-score meets or exceeds 2 for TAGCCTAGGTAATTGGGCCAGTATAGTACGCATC
Not satisfied

----------
# System: PPARg:RXRa 30nM:10nM, anti-RXR (NR concentration 30 nM, RXRa partner concentration 10 nM)
# protocol notes: PBM binding z-score (relative to random genomic background probes); higher = stronger binding; sequences stand for … in GC…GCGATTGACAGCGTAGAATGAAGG
reported property: PBM binding z-score
Answer with a number only.

Field: example entries. Status: answers known.
[
  {
    "chain sequence": "TAGCCTAGGTCATTCAGGGACCAGTATAGAAAGC",
    "PBM binding z-score": 0.478
  },
  {
    "chain sequence": "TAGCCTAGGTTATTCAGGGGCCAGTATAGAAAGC",
    "PBM binding z-score": -0.33
  },
  {
    "chain sequence": "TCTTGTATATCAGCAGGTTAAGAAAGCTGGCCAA",
    "PBM binding z-score": 3.19
  },
  {
    "chain sequence": "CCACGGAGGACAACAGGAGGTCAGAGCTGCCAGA",
    "PBM binding z-score": -0.705
  },
  {
    "chain sequence": "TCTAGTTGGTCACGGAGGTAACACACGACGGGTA",
    "PBM binding z-score": 3.23
  }
]

Kindly review the next sequence as well.
Identify measured PBM binding z-score associated with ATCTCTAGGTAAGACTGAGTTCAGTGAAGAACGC
0.167

----------
Listed next: entries and their corresponding PBM binding z-score.
# Tested on: PPARg:RXRa 270nM:90nM, anti-RXR (NR concentration 270 nM, RXRa partner concentration 90 nM)
# protocol notes: PBM binding z-score (relative to random genomic background probes); higher = stronger binding; sequences stand for … in GC…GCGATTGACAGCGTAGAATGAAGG

Field: example entries. Status: answers known.
[
  {
    "chain sequence": "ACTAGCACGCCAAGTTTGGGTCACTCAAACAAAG",
    "PBM binding z-score": -0.00833
  },
  {
    "chain sequence": "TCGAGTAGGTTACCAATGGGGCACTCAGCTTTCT",
    "PBM binding z-score": 1.39
  },
  {
    "chain sequence": "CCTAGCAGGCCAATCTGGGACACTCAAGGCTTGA",
    "PBM binding z-score": -0.496
  },
  {
    "chain sequence": "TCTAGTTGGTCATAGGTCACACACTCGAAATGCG",
    "PBM binding z-score": 8.03
  },
  {
    "chain sequence": "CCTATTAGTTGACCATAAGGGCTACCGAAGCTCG",
    "PBM binding z-score": 0.0189
  }
]

Identify measured PBM binding z-score associated with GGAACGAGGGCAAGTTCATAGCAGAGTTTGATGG
2.35

Identify measured PBM binding z-score associated with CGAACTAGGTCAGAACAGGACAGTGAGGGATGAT
4.45

Identify measured PBM binding z-score associated with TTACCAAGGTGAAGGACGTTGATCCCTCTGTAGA
1.19

----------
# Test system: THRa:RXRa (NR concentration 90 nM, RXRa partner concentration 90 nM)
# protocol notes: PBM binding z-score (relative to random genomic background probes); higher = stronger binding; sequences stand for … in GC…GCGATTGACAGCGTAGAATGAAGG
Listed next: entries and their corresponding PBM binding z-score.
Answer with a number only.

Field: example entries. Status: answers known.
[
  {
    "chain sequence": "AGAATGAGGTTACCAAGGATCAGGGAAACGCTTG",
    "PBM binding z-score": 2.94
  },
  {
    "chain sequence": "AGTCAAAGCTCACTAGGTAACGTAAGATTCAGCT",
    "PBM binding z-score": 0.131
  },
  {
    "chain sequence": "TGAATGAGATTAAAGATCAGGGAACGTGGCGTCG",
    "PBM binding z-score": -0.316
  },
  {
    "chain sequence": "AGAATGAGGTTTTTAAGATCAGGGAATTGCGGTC",
    "PBM binding z-score": 0.216
  },
  {
    "chain sequence": "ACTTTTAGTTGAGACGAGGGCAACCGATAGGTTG",
    "PBM binding z-score": 2.53
  }
]

Identify measured PBM binding z-score associated with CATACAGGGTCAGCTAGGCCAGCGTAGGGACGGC
3.3

Identify measured PBM binding z-score associated with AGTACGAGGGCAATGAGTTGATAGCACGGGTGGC
1.07

Identify measured PBM binding z-score associated with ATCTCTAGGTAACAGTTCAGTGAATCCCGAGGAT
0.831

Identify measured PBM binding z-score associated with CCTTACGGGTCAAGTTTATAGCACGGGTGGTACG
2.56

Identify measured PBM binding z-score associated with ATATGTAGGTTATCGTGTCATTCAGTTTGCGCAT
0.907

Identify measured PBM binding z-score associated with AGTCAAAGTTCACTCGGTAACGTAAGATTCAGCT
1.79

Identify measured PBM binding z-score associated with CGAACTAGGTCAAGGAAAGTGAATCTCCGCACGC
2.42

Identify measured PBM binding z-score associated with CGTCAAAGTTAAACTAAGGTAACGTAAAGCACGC
4.04

----------
# System: PPARg DBDmut:RXRa IVT, anti-PPARg (DBD mutation: PPARg1 K132A/R137A, NR concentration 270 nM, RXRa partner concentration 90 nM)
# protocol notes: PBM binding z-score (relative to random genomic background probes); higher = stronger binding; sequences stand for … in GC…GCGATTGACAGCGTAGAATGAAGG
reported property: PBM binding z-score
Answer with a number only.

Field: example entries. Status: answers known.
[
  {
    "chain sequence": "GATACAGGGTCAGCTAGAGGCGAGAGTATGGAAA",
    "PBM binding z-score": -0.6
  },
  {
    "chain sequence": "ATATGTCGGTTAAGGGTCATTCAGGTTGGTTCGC",
    "PBM binding z-score": 2.12
  },
  {
    "chain sequence": "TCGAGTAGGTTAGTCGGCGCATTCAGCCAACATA",
    "PBM binding z-score": -1.61
  },
  {
    "chain sequence": "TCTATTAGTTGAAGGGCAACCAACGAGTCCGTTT",
    "PBM binding z-score": 0.246
  },
  {
    "chain sequence": "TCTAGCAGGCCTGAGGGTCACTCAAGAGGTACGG",
    "PBM binding z-score": -2.08
  },
  {
    "chain sequence": "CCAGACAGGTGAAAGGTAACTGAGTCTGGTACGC",
    "PBM binding z-score": -0.148
  },
  {
    "chain sequence": "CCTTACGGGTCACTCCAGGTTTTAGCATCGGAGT",
    "PBM binding z-score": 2.95
  },
  {
    "chain sequence": "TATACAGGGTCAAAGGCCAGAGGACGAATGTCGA",
    "PBM binding z-score": 2.24
  }
]

Identify measured PBM binding z-score associated with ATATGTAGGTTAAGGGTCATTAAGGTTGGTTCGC
2.09

Identify measured PBM binding z-score associated with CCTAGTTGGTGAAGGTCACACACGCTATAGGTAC
1.24

Identify measured PBM binding z-score associated with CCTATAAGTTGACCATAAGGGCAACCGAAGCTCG
0.17

Identify measured PBM binding z-score associated with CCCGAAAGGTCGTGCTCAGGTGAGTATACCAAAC
0.719
